Attribution: patent US12187746B2

test system: P-4E-BP1 (T37/46); experiment: Cell based AlphaLISA assay, inhibition of P-4E-BP1 (T37/46) in MDA-MB-468 cells; conditions: Homo sapiens, 4 h, 0.017-1,000 nM, two to four hours at 37° C., AlphaLisa SureFire Ultra, read-out: pIC50 for Inhibition of mTORC1 and mTORC2 Substrate Phosphorylation, p-4E-BP1-(T37/46) (converted)
assay.metric: IC50

What IC50 value was documented for this compound, CO[C@H]1C[C@@H]2CC[C@@H](C)[C@@](O)(O2)C(=O)C(=O)N2CCCC[C@H]2C(=O)O[C@H]([C@H](C)C[C@@H]2CC[C@@H](O)[C@H](OC)C2)C[C@@H](O)[C@H](C)/C=C(\C)[C@@H](O)[C@@H](OC)C(=NOCC(=O)N2CCc3nc(N4CCN(CCOCCN5CCN(c6ncc(C(=O)N7CCc8cc(Cn9nc(-c%10ccc%11oc(N)nc%11c%10)c%10c(N)ncnc%109)ccc8C7)cn6)CC5)CC4)ncc3C2)[C@H](C)C[C@H](C)/C=C/C=C/C=C/1C ?
3.16 to 31.6 nM
